- Test system: TXK
- Condition Details: concentration: 1 μM, replicates: in singlicate; n = 1
Would you kindly list %Inh for each of these compounds?
Give the value in % but do not write % after it.

Enquiry: # get_value(readout= %Inh, system= TXK) for COc1ccc(CSc2nnc(-c3ccc4ncsc4c3)o2)cc1C(F)(F)F
Return: 0

Enquiry: // repeat for CCn1c(-c2ccccc2)nc2cnccc21 and report
Return: 9

Enquiry: // repeat for Nc1cccc(-c2ccc3c(N)n[nH]c3c2)n1 and report
Return: 17

Enquiry: // repeat for FC(F)(F)c1ccccc1-c1cc(-c2c[nH]nc2-c2ccccn2)ccn1 and report
Return: 0

Enquiry: // repeat for COC(=O)c1cccc(NC(=O)NC2CCN(c3ccnc(Nc4ccc(F)cc4)n3)C2)c1 (stereo not drawn) and report
Return: 0

Enquiry: // repeat for COc1cc2ncnc(Nc3cccc(Br)c3)c2cc1OC.Cl and report
Return: 4

* * *

Would you kindly list Kd for each of these compounds?
- Tested on: JAK2(JH1domain-catalytic)
Give the value in nM but do not write nM after it.

Enquiry: Requested field: Kd. Item: COc1ccc(Nc2nccc(N3CCC(NC(=O)c4cc5ccccc5s4)C3)n2)cc1 (centres unmarked) [GSK1379738]
Return: 1800

Enquiry: // repeat for Cn1cncc1C(=O)NC1CCN(c2ccnc(Nc3ccc(F)cc3)n2)C1 (centres unmarked) [GSK1379717] and report
Return: 1500

* * *

- Test system: CDK4
- Condition Details: concentration: 1 μM, replicates: in singlicate; n = 1
Measured Metric: %Inh (%)
Give the value in % but do not write % after it.

Enquiry: # get_value(readout= %Inh, system= CDK4) for CCCCc1nn2ncccc2c1-c1ccnc(NC2CC2)n1 [GW684374]
Return: 21

Enquiry: // repeat for CCn1c(-c2ccccc2)nc2cnccc21 [SB-733416] and report
Return: 3

Enquiry: // repeat for Cn1cncc1-c1cc2c(Nc3ccc(OCc4ccccc4)cc3)ncnc2cn1 [GW281179] and report
Return: 0

Enquiry: // repeat for CC(C)c1cc(-c2ccc3c(N)n[nH]c3c2)nc(N)n1 [GSK2250882] and report
Return: 0

Enquiry: // repeat for CCn1c(-c2c(N)noc2C)nc2cnccc21 [SB-737856] and report
Return: 0

Enquiry: // repeat for Cn1cnc2c(N)ncnc21 [SKF-97623] and report
Return: 25

Enquiry: // repeat for COc1ccc(CSc2nnc(-c3ccc4c(c3)CCO4)o2)cc1 and report
Return: 0

Enquiry: // repeat for COC(=O)c1cccc(NC(=O)NC2CCN(c3ccnc(Nc4ccc(OC)cc4)n3)C2)c1 (stereo not shown) [GSK1379746] and report
Return: 19

Enquiry: // repeat for Fc1ccc(-c2nn3cccc(F)c3c2-c2ccncc2)cc1 [GW475620] and report
Return: 24

Enquiry: // repeat for O=C(Nc1n[nH]c2nc(-c3cccs3)c(Br)cc12)C1CCCC1 [SB-743341] and report
Return: 16

Enquiry: // repeat for COc1cc2ncnc(Nc3cccc(Br)c3)c2cc1OC.Cl [GI230329] and report
Return: 42

Enquiry: // repeat for COC(=O)C(Cc1ccccc1)NC(=O)NC1CCN(c2ccnc(Nc3ccc(F)cc3)n2)C1 (stereo not shown) [GSK1379714] and report
Return: 5

Enquiry: // repeat for Nc1nccc(-c2c(-c3ccc(F)cc3)ncn2C2CCN(Cc3ccccc3)CC2)n1 [SB-219980] and report
Return: 5

Enquiry: // repeat for COc1ccc(Nc2nccc(NCCNC(=O)Nc3cc(C)ccc3C)n2)cc1 [GSK1379899] and report
Return: 3

Enquiry: // repeat for CCc1ccc(-c2ccc3c(c2)-c2n[nH]cc2S(=O)(=O)N3C)cc1 and report
Return: 0

Enquiry: // repeat for O=c1cc(N2CCOCC2)nc2n(Cc3cccc(Cl)c3Cl)c3ccccc3n12 [GSK2299009] and report
Return: 31

Enquiry: // repeat for Cc1ccc(NC(=O)c2ccc(Cl)cc2)cc1-c1ccc(C(=O)Nc2ccncc2)cc1 [GSK1398467] and report
Return: 0

Enquiry: // repeat for COc1ccc(Nc2nccc(N3CCC(NC(=O)c4cc5ccccc5s4)C3)n2)cc1 (stereo not shown) [GSK1379738] and report
Return: 19

Enquiry: // repeat for CNc1nc(-c2ccc3c(N)n[nH]c3c2)cc(N2C[C@@H](C(=O)NC3CCCCC3)OC[C@H]2C)n1 [GSK2375584] and report
Return: 100

* * *

Would you kindly list %Inh for each of these molecules?
- Tested on: MAPKAPK2
- Condition Details: concentration: 1 μM, replicates: in singlicate; n = 1
Give the value in % but do not write % after it.

Enquiry: # get_value(readout= %Inh, system= MAPKAPK2) for Cc1ccc(NC(=O)Nc2ccc(Cl)c(C(F)(F)F)c2)cc1-c1ccc(C(=O)Nc2ccncc2)cc1
Return: 7

Enquiry: // repeat for CCn1c(-c2ccccc2)nc2cnccc21 and report
Return: 34

Enquiry: // repeat for Cc1ccc(NC(=O)Nc2ccc(Cl)cc2)cc1-c1ccc(C(=O)Nc2ccncc2)cc1 and report
Return: 19

Enquiry: // repeat for COc1ccc(CSc2nnc(-c3ccc4c(c3)CCO4)o2)cc1 and report
Return: 0

* * *

- System: CDC2L2
- Condition Details: concentration: 1 μM, replicates: in singlicate; n = 1
Would you kindly list %Inh for each of these compounds?
Give the value in % but do not write % after it.

Enquiry: Requested field: %Inh. Item: Cc1cccc2c(-c3ccncn3)c(-c3ccc(F)cc3)nn12
Return: 3

Enquiry: // repeat for CNC(=O)c1ccc(C)c(-n2c(C)cc(OCc3ccc(F)cc3F)c(Br)c2=O)c1 and report
Return: 0

Enquiry: // repeat for NS(=O)(=O)c1cccc(N/C=C2\C(=O)Nc3ccc(S(=O)(=O)Cc4c(Cl)cccc4Cl)cc32)c1 and report
Return: 9

Enquiry: // repeat for Cn1cncc1C(=O)NC1CCN(c2ccnc(Nc3ccc(F)cc3)n2)C1 (stereo not drawn) and report
Return: 6

Enquiry: // repeat for COc1ccc(Nc2nccc(NCCNC(=O)Nc3cc(C)ccc3C)n2)cc1 and report
Return: 0

Enquiry: // repeat for COc1cccc(CNC(=O)NC2CCN(c3ccnc(Nc4ccc(F)cc4)n3)C2)c1 (stereo not drawn) and report
Return: 0

Enquiry: // repeat for CC(C)c1cc(-c2ccc3c(N)n[nH]c3c2)nc(N)n1 and report
Return: 5

Enquiry: // repeat for Cc1ccccc1Cn1ccn2c(=O)cc(N3CCOCC3)nc12 and report
Return: 0

Enquiry: // repeat for CNCc1ccc2nc(NC(=O)c3ccc(C(C)(C)C)cc3)cn2c1 and report
Return: 4

* * *

- System: TYK2(JH1domain-catalytic)
pKd: −log10 of the molar value.
Measured Metric: pKd

Enquiry: # get_value(readout= pKd, system= TYK2(JH1domain-catalytic)) for Cn1cncc1-c1cc2c(Nc3ccc(OCc4ccccc4)cc3)ncnc2cn1 [GW281179]
Return: < 5.00

* * *

- Tested on: TIE2
- Construct: gene TEK
- Condition Details: concentration: 1 μM, replicates: in singlicate; n = 1
Would you kindly list %Inh for each of these compounds?
Give the value in % but do not write % after it.

Enquiry: Requested field: %Inh. Item: Cc1ccc(NC(=O)Nc2ccccc2F)cc1-c1ccc(C(=O)Nc2ccncc2)cc1
Return: 0

Enquiry: // repeat for Cn1cncc1-c1cc2c(Nc3ccc(OCc4ccccc4)cc3)ncnc2cn1 and report
Return: 0

Enquiry: // repeat for Cc1c(Cn2c(C)c(C)n3c(=O)cc(N4CCOCC4)nc23)cccc1C(F)(F)F and report
Return: 0

Enquiry: // repeat for CCn1c(-c2ccccc2)nc2cnccc21 and report
Return: 0

Enquiry: // repeat for COc1ccc(Nc2nccc(-c3ccc(NC(=O)c4cc5cc(F)ccc5[nH]4)cc3)n2)cc1 and report
Return: 0

Enquiry: // repeat for CC[C@@H]1CO[C@H](C(=O)Nc2ccccc2)CN1c1cc(-c2ccc3c(N)n[nH]c3c2)nc(NC)n1 and report
Return: 0

Enquiry: // repeat for Cc1cccc2c(-c3ccncn3)c(-c3ccc(F)cc3)nn12 and report
Return: 0

Enquiry: // repeat for Cc1c(Cn2c3ccccc3n3c(=O)cc(N4CCOCC4)nc23)cccc1C(F)(F)F and report
Return: 0

Enquiry: // repeat for NS(=O)(=O)c1cccc(N/C=C2\C(=O)Nc3ccc(S(=O)(=O)Cc4c(Cl)cccc4Cl)cc32)c1 and report
Return: 0

Enquiry: // repeat for COc1ccc(Nc2nccc(N3CCC(NC(=O)C(C)c4ccc(Cl)cc4)CC3)n2)cc1 (stereo not drawn) and report
Return: 0

Enquiry: // repeat for Fc1ccc(-c2nc[nH]c2-c2ccncc2)cc1 and report
Return: 3

Enquiry: // repeat for CNc1nc(-c2ccc3c(N)n[nH]c3c2)cc(N2C[C@@H](C(=O)NC3CCCCC3)OC[C@H]2C)n1 and report
Return: 0

Enquiry: // repeat for COc1ccc(-c2coc3ccc(-c4nnc(C)o4)cc23)cc1 and report
Return: 40

Enquiry: // repeat for COc1ccc(CSc2nnc(-c3ccc4c(c3)CCO4)o2)cc1 and report
Return: 0

Enquiry: // repeat for CSc1ccc(-c2nc3n(c2-c2ccncc2)CCC3)cc1 and report
Return: 0

Enquiry: // repeat for Fc1ccc(-c2nn3cccc(F)c3c2-c2ccncc2)cc1 and report
Return: 1

Enquiry: // repeat for COc1ccc(CSc2nnc(-c3ccc4nccn4c3)o2)cc1C(F)(F)F and report
Return: 0

Enquiry: // repeat for O=C1NC(=O)C(c2ccc(Cl)cc2)=C1Nc1cccc(Cl)c1 and report
Return: 6

Enquiry: // repeat for COc1ccc2cc(-c3nc(-c4ccccc4C(C)C)[nH]c3-c3ccncc3)ccc2c1 and report
Return: 97

Enquiry: // repeat for Cn1cnc2c(N)ncnc21 and report
Return: 0

Enquiry: // repeat for O=C(Nc1n[nH]c2nc(-c3ccco3)c(Br)cc12)C1CCN(Cc2ccccc2)C1.O=C(O)[C@H](O)[C@@H](O)C(=O)O (stereo not drawn) and report
Return: 17

Enquiry: // repeat for COc1nccc(-c2c(-c3ccc(F)cc3)ncn2CCCN2CCOCC2)n1 and report
Return: 33

Enquiry: // repeat for CCCCc1nn2ncccc2c1-c1ccnc(NC2CC2)n1 and report
Return: 0

Enquiry: // repeat for COC(=O)c1cccc(NC(=O)NC2CCN(c3ccnc(Nc4ccc(OC)cc4)n3)C2)c1 (stereo not drawn) and report
Return: 0

Enquiry: // repeat for COc1cc2ncnc(Nc3cccc(Br)c3)c2cc1OC.Cl and report
Return: 0

Enquiry: // repeat for COC(=O)c1cccc(NC(=O)NC2CCN(c3ccnc(Nc4ccc(F)cc4)n3)C2)c1 (stereo not drawn) and report
Return: 0

Enquiry: // repeat for Cc1ccc(NC(=O)c2ccc(Cl)cc2)cc1-c1ccc(C(=O)Nc2ccncc2)cc1 and report
Return: 0

Enquiry: // repeat for Cn1cncc1C(=O)NC1CCN(c2ccnc(Nc3ccc(F)cc3)n2)C1 (stereo not drawn) and report
Return: 0

Enquiry: // repeat for COc1cccc(CNC(=O)NC2CCN(c3ccnc(Nc4ccc(F)cc4)n3)C2)c1 (stereo not drawn) and report
Return: 0

Enquiry: // repeat for COC(=O)C(Cc1ccccc1)NC(=O)NC1CCN(c2ccnc(Nc3ccc(F)cc3)n2)C1 (stereo not drawn) and report
Return: 0

Enquiry: // repeat for O=c1cc(N2CCOCC2)nc2n(Cc3ccccc3F)ccn12 and report
Return: 0

Enquiry: // repeat for COc1cccc(C2=C(Nc3cc(Cl)c(O)c(Cl)c3)C(=O)NC2=O)c1 and report
Return: 0

Enquiry: // repeat for CC(C)c1ccc(O)cc1Nc1ccnc2ccc(C(F)(F)F)cc12 and report
Return: 0

Enquiry: // repeat for CS(=O)(=O)Cc1ccc(Nc2nccc(-c3c(-c4cccc(NC(=O)C5CCCCC5)c4)nn4ncccc34)n2)cc1 and report
Return: 0

Enquiry: // repeat for CNC(=O)c1ccc(C)c(-n2c(C)cc(OCc3ccc(F)cc3F)c(Br)c2=O)c1 and report
Return: 0

Enquiry: // repeat for CC(=O)c1c(C)c2cnc(Nc3ccn(C)n3)nc2n(C2CCCC2)c1=O and report
Return: 0
